Experiment: qHTS of pediatric cancer cell lines to identify multiple opportunities for drug repurposing: Confirmatory screen for Rh41 cells (AID 1347123);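 note: 48 h compound exposure; nearly all actives have a fitted effect of over 60% in size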
Conditions: Rh41 rhabdomyosarcoma cells, viability/cytotoxicity qHTS; series mostly up to 45.9 µM
Inconclusive results are not listed. Activity calls are given as the source filed them. Calls come from the whole dose curve; as a rule, active = well fitted cell-killing curve with a large enough effect; inconclusive = small, poorly fitted or top-dose-only effect; inactive = no such curve, though single readings can be large or run the other way.
Result category, one only: active, inactive

Take a look at these entries with their results.
1. C=CCNC1=C2C[C@@H](C)C[C@H](OC)[C@@H](O)[C@@H](C)C=C(C)[C@H](OC(N)=O)[C@@H](OC)C=CC=C(C)C(=O)NC(=CC1=O)C2=O
active
2. COc1cc([C@@H]2c3cc4c(cc3[C@@H](O[C@@H]3O[C@@H]5CO[C@@H](c6cccs6)O[C@@H]5[C@H](O)[C@@H]3O)[C@H]3COC(=O)[C@H]23)OCO4)cc(OC)c1O
active
3. O=C(C=CC=Cc1ccc2c(c1)OCO2)N1CCCCC1
inactive
4. Cn1cc(CNCC2CCN(c3ncc(C(=O)NO)cn3)CC2)c2ccccc21
active
5. C=CC(=O)Nc1ccc2ncnc(Nc3ccc(OCc4cccc(F)c4)c(Cl)c3)c2c1
active
6. CCOC(=O)[C@@H](N)Cc1ccc(-c2cc(O[C@H](c3ccc(Cl)cc3-n3ccc(C)n3)C(F)(F)F)nc(N)n2)cc1
active

Now turn to the next compound.
Exercise: Called result for "COC1=C2C[C@@H](C)C[C@H](OC)[C@@H](O)[C@@H](C)C=C(C)[C@H](OC(N)=O)[C@@H](OC)C=CC=C(C)C(=O)NC(=CC1=O)C2=O"
Key: active

* * *

Consider the following molecules; for each one, report its Potency.
Test: Quantitative High-Throughput drug screen in 47 multiple myeloma cell lines against the NCATS MIPE library collection: SKMM1_PLB cell viability assay (AID 1919863); note: potency is the fitted concentration of half-maximal effect; nearly all actives have a fitted effect of over 35% in size
Details: SKMM1 myeloma viability, CellTiter-Glo ATP, 48 h
Records with an inconclusive call do not appear. Active and inactive are the calls of the source. The call rests on the fitted dose curve; in most records, active means well fitted cell-killing curve with a large enough effect; inconclusive means small, poorly fitted or top-dose-only effect, or effect the other way; inactive means no such curve, though single readings can be large or run the other way.

Provide Potency for all items below, preserving their order.
1. Cn1c(Nc2ccc(C(F)(F)F)cc2)nc2cc(Oc3ccnc(-c4ncc(C(F)(F)F)[nH]4)c3)ccc21
2. CC(=O)SCC(Cc1ccccc1)C(=O)NCC(=O)OCc1ccccc1 (stereo not given)
3. Cn1cc(-c2ccc3ncc(Cc4ccc5ncccc5c4)n3n2)cn1
4. CC(C)N1[N]C(=C2C=c3cc(O)ccc3=N2)c2c(N)ncnc21
5. CCOc1cc2c(c(F)c1OCC)C(=N)N(CC(=O)c1cc(N3CCOCC3)c(OC)c(C(C)(C)C)c1)C2

Key:
1. 20.9 µM (active)
2. 10.5 µM (active)
3. 2.09 µM (active)
4. 0.118 µM (active)
5. 20.9 µM (active)

* * *

Assay: Quantitative High-Throughput drug screen in 47 multiple myeloma cell lines against the NCATS MIPE library collection: KMS34_JCRB cell viability assay (AID 1918985); note: nearly all actives have a fitted effect of over 40% in size
Conditions: KMS34 myeloma viability, CellTiter-Glo ATP luminescence, 48 h; series mostly up to 45.8 µM
Records with an inconclusive call do not appear. Calls of active or inactive are those of the source. Calls come from the whole dose curve; as a rule, active = well fitted cell-killing curve with a large enough effect; inconclusive = small, poorly fitted or top-dose-only effect, or effect the other way; inactive = no such curve, though single readings can be large or run the other way.
Bench note: report the call from active, inactive

Reference set, count: 2
1) O=C(C[C@@H]1CC=CCCC(=O)O[C@H](c2ccccc2)CNC1=O)NCc1ccc(Cl)cc1
inactive
2) COc1ccc2c(c1OC)C(=O)OC2[C@H]1c2c(cc3c(c2OC)OCO3)CCN1C (some centres not stated)
active

Exercise: // outcome(item) with item = "N#CNC(=NCCCCCCOc1ccc(Cl)cc1)Nc1ccncc1"
Key: active

Exercise: # lookup: test call for "CCOC(=O)C=C[C@H](C[C@@H]1CCNC1=O)NC(=O)[C@@H](CC(=O)[C@@H](NC(=O)c1cc(C)on1)C(C)C)Cc1ccc(F)cc1"
Key: inactive

Exercise: Entry "C[C@@H](Oc1ccc2[nH]nc(C=Cc3cnn(CCO)c3)c2c1)c1c(Cl)cncc1Cl" : call = ?
Key: active

Exercise: Outcome logged for "CCCNS(=O)(=O)Nc1ncnc(OCCOc2ncc(Br)cn2)c1-c1ccc(Br)cc1" in this assay:
Key: inactive

Exercise: I'd appreciate the recorded outcome for "COc1ccc(Nc2cc(-c3cnc(N)nc3)nc(N3CCOCC3)n2)cn1" from this test.
Key: active

Exercise: # outcome recorded in this test, key = "CC(=O)N[C@@H]1[C@H](O[C@@H]2c3ccc(c(Cl)c3)Oc3cc4cc(c3O[C@H]3O[C@H](CO)[C@@H](O)[C@H](O)[C@H]3NC(=O)CCCCCCCC(C)C)Oc3ccc(cc3Cl)C[C@H]3NC(=O)[C@H](N)c5ccc(O)c(c5)Oc5cc(O)cc(c5)[C@H](NC3=O)C(=O)N[C@H]4C(=O)N[C@H]3C(=O)N[C@@H]2C(=O)N[C@@H](C(=O)O)c2cc(O)cc(O[C@H]4O[C@H](CO)[C@@H](O)[C@H](O)[C@H]4O)c2-c2cc3ccc2O)O[C@H](CO)[C@@H](O)[C@@H]1O"
Key: inactive

Exercise: Kindly provide the recorded test outcome for the following compound: "CC(=O)N1CCN(c2ccc(OCc3nn(C)c(C)c3-c3cccc4c(CCCOc5cccc6ccccc56)c(C(=O)O)n(Cc5cccnc5)c34)cc2)CC1"
Key: active

Exercise: Hi team, can someone confirm the assay call for "C=CCNc1c(O)cc2c(O)c1C[C@@H](C)C[C@H](OC)[C@@H](O)[C@@H](C)C=C(C)[C@H](OC(N)=O)[C@@H](OC)C=CC=C(C)C(=O)N2" ?
Key: active

Exercise: Query: recorded result category for "COC(=O)[C@@H]1CC2=CC(=O)CC[C@]2(C)[C@@]23O[C@@H]2C[C@@]2(C)[C@H](CC[C@@]24CCC(=O)O4)[C@@H]13" in this test
Key: inactive

Exercise: I'd appreciate the recorded outcome for "CC[C@H](CC[C@@H](C)[C@H]1CC[C@H]2[C@@H]3CC=C4C[C@@H](O)CC[C@]4(C)[C@@H]3CC[C@]12C)C(C)C" from this test.
Key: inactive

Exercise: Short answer needed: outcome of this test for "Oc1ccc([C@@H]2Oc3ccc(O)cc3[C@@H]3CCC[C@@H]32)cc1" ?
Key: active

Exercise: // return assay outcome for "O=C(CCCCCCC(=O)Nc1cccnc1)NO"
Key: active

Exercise: Can you look up the reported call for "C[C@H](CCC(=O)O)[C@H]1CC[C@H]2[C@@H]3[C@H](O)C[C@@H]4C[C@H](O)CC[C@]4(C)[C@@H]3CC[C@]12C" for me?
Key: inactive

Exercise: Please state the recorded outcome for this compound: "Oc1cc(-c2nc(-c3ccccc3)[nH]c2-c2ccncc2)ccc1Cl"
Key: active

Exercise: Test call for this compound, please: "O=C(O)C(=O)Nc1cccc(C2=NN=N[N]2)c1"
Key: inactive
